Cited source: ChEMBL document CHEMBL4033734

test system: Bel-7402; assay: Cytotoxic activity against human Bel7402 cells incubated for 48 hrs by MTT assay; assay type: functional, cell-based; conditions: Bel-7402, 48 h
pIC50: −log10 of the molar value.
Measured pIC50, listed per entry.
Measured quantity: pIC50

> print(dat)
                                item.smiles  measured.quantity  recorded.number
1  CC1=C(O)C(=O)C=C2C1=CC=C1[C@@]2(C)CC[C@@]2(C)[C@@H]3C[C@](C)(C(=O)OCOCc4ccccc4)CC[C@]3(C)CC[C@]12C              pIC50             6.29
2  CCCCCCOC(=O)[C@]1(C)CC[C@]2(C)CC[C@]3(C)C4=CC=C5C(=CC(=O)C(O)=C5C)[C@]4(C)CC[C@@]3(C)[C@@H]2C1              pIC50             5.66
3  CCCCCOC(=O)[C@]1(C)CC[C@]2(C)CC[C@]3(C)C4=CC=C5C(=CC(=O)C(O)=C5C)[C@]4(C)CC[C@@]3(C)[C@@H]2C1              pIC50             6.09
